From: BindingDB's records for doi:10.1021/jm00060a006

Below, each of the compounds is paired with its reported pIC50 value.
# protocol: Inhibition of PAF-induced rabbit platelet aggregation
Here pIC50 is given on a logarithmic scale as minus log10 of the concentration in mol/L.

Check out these entries, answers already filled in.
- COc1cc(C(=O)N2CCN(C(=O)c3cc(OC)c(OC)c(OC)c3)C(COC(=O)C(C)(C)C)C2)cc(OC)c1OC (stereo not given): 7.00
- COc1cc(C(=O)N2CCN(C(=O)c3cc(OC)c(OC)c(OC)c3)CC2)cc(OC)c1OC: 5.75
- CCN(CC)C(=O)OCC1CN(C(=O)c2cc(OC)c(OC)c(OC)c2)CCN1C(=O)c1cc(OC)c(OC)c(OC)c1 (stereo not given): 4.59
- CCCCN(CCCC)C(=O)OCC1CN(C(=O)c2cc(OC)c(OC)c(OC)c2)CCN1C(=O)c1cc(OC)c(OC)c(OC)c1 (stereo not given): 5.90
- CCC(CC)NC(=O)OCC1CN(C(=O)c2cc(OC)c(OC)c(OC)c2)CCN1C(=O)c1cc(OC)c(OC)c(OC)c1 (stereo not given): 6.89
- COc1cc(N2CCN(c3cc(OC)c(OC)c(OC)c3)CC2)cc(OC)c1OC: 4.90
- CCC(C)CNC(=O)OCC1CN(C(=O)c2cc(OC)c(OC)c(OC)c2)CCN1C(=O)c1cc(OC)c(OC)c(OC)c1 (stereo not given): 6.33
- COc1cc(C(=O)N2CCN(C(=O)c3cc(OC)c(OC)c(OC)c3)C(COC(=O)NC(C)(C)C)C2)cc(OC)c1OC (stereo not given): 6.89

What value of measured pIC50 is listed for COc1cc(C(=O)N2CCN(C(=O)c3cc(OC)c(OC)c(OC)c3)C(COC(=O)NC(C)C(C)C)C2)cc(OC)c1OC (stereo not given) ?
7.10

Would you kindly share the measured pIC50 for COc1cc(C(=O)N2CCN(C(=O)c3cc(OC)c(OC)c(OC)c3)C(COC(=O)C3CCCCC3)C2)cc(OC)c1OC (stereo not given) ?
6.54

----------
Measured pIC50, listed per entry.
# protocol: Inhibition of PAF-induced rabbit platelet aggregation
Just the number, please; pIC50 means minus log10 of the concentration in mol/L.

* COc1cc(C(=O)N2CCN(C(=O)c3cc(OC)c(OC)c(OC)c3)C(COC(=O)CC(C)(C)C)C2)cc(OC)c1OC (stereo not given) | 6.92
* COc1cc(C(=O)N2CCN(C(=O)c3cc(OC)c(OC)c(OC)c3)C(COC(=O)NC(C)CC(C)C)C2)cc(OC)c1OC (stereo not given) | 6.55
* C[C@@H]1C(=O)O[C@H]2[C@H](O)[C@@]34[C@H]5C[C@@H](C(C)(C)C)[C@]36[C@@H](OC(=O)[C@@H]6O)O[C@@]4(C(=O)O5)[C@@]12O | 6.13

Fill in the blank: the reported pIC50 of COc1cc(C(=O)N2CCN(C(=O)c3cc(OC)c(OC)c(OC)c3)C(COC(=O)c3ccccc3Cl)C2)cc(OC)c1OC (stereo not given) is ____.
6.77

# get_value(readout='pIC50', item= CCCN(CCC)C(=O)OCC1CN(C(=O)c2cc(OC)c(OC)c(OC)c2)CCN1C(=O)c1cc(OC)c(OC)c(OC)c1 (stereo not given) )
6.42

Would you kindly share the measured pIC50 for COc1cc(C(=O)N2CCN(C(=O)c3cc(OC)c(OC)c(OC)c3)C(COC(=O)COc3ccc(F)cc3)C2)cc(OC)c1OC (stereo not given) ?
4.99

Recorded pIC50 of CCCCCCCC(=O)OCC1CN(C(=O)c2cc(OC)c(OC)c(OC)c2)CCN1C(=O)c1cc(OC)c(OC)c(OC)c1 (stereo not given) , please.
6.51
